Tested on: MS2 coat protein
Assay: apparent KD of MS2 coat protein; designed switch direction (-1 OFF switch, 1 ON switch): -1; higher = weaker reporter binding
Settings: input ligand: FMN 200 uM

# residue_sequence, assayed_target, apparent KD of MS2 coat protein, nM
rows = [
    ("UAUUAGCAAGCAAAUGGGUACAUGAGGAUCACCCAUGUGCUCGUCUUAUAAGGUACUGUGACGAAAGUCACGGUACC [Eli 91 v35] (Eterna round: R97, puzzle: Sensor, turn-off variant 1)", "MS2 coat protein", 24.6),
    ("GGCCCGGGAGGAUAUACAAUGGGCUCGGGAAAUCGGGCUCGACAUGAGGAUCACCCAUGUAGAAGGCCCGGGCC [-36.5, -34.6 kcal A 24%, 4,0] (Eterna round: R97, puzzle: Exclusion 2)", "MS2 coat protein", 34),
    ("UCAAGUUUAGAGGAUAUAUAAUAUUUAUUAACUAUAGAAGGCUAUACAUGAGGAUCACCCAUGUAUAUUGGGAU [JR_Ex6_Sub066] (Eterna round: R97, puzzle: Exclusion 6)", "MS2 coat protein", 40.6),
]
